Measured Target: HIV-1 NL4-3 Env on infected cells (HIV-1 group M subtype B, NL4-3 (pNL4-3 …, strain))

Binder: c1134 (antibody, V domains shown) VH: QVRLHQWGEGLLRPSDTLSLTCSLSGNVFYETFFNWIRQSPGKGLEWIAEVSFAGDWNYNPSLKSRVTTYVDGFKYHASLQMSSMTAADAGVYYCAAGGGSFDVHSWGQGIRVTVSS VL: EIVLTQAPLSSSVTLGQAASISCTSNHSLQHSNGNTYLSWFQQRPGQPPRLLIRKISNRGSGVPDRFSGSGSGTHFTLTIDRVEPEDVGTYYCVQATQFPWTFGQGTTVDIT
binding result: binds
//
Binder: c5250 (antibody, V domains shown) VH: QVRLEQWGPGLLKPSETLSLTCAVHGESFDDYSWTWIRHTPSLGLQWIGEIRPFGEIVHKSSLSGRLSFSRDTSKRQVYLKLASVTAADAGVYFCARGPVIYQLPHFYYRGYNVWGQGTTVTVSA VL: DLVVTQSPRSLPVTPGESATIFCRSSQSLRHDNGMHYLDWYLQKPGQSPQLLIYLTSNRASGVSDRFSGSGSGTEFTLKISRVEADDVGIYYCMQAIQDPRVFGQGTRLEIK
binding result: binds
//
Binder: c10814 (antibody, V domains shown) V domain 1: EVRLDQSGTEMRKPGTRVRLSCKVSGHTTSDFFVHWVQQAPQRGPQWMGLINVEDENVIYADIFQGRISIVADTSKKTVFLDLTDLTFEETALYFCATHTLQKDTGDYVAAFDSWGQGTLLYVSS V domain 2: QSVLTQPPSVSAVPGQKVIISCSGRTSNIGTNFVSWYQQFPGAAPKLLIYDNFNRPSGISDRFSASKSDTSATLAITALQAGDEAEYYCGAWDSGLNPAVFVFGSGTRVFVL
binding result: binds
